Test system: DU-145 prostate
Experiment: NCI tumour cell line growth inhibition, 48 h
Let's look at some compounds and their measured TGI.
Expressed in µM, but write only the number.

CCCCCCCc1c(Cl)nc(Cl)nc1Cl :: 27.4

Now look at this entry.
Ask: I'd like to know its TGI. The compound in question is "CS(=O)(=O)Nc1ccc(Nc2c3ccccc3nc3cc(N)ccc23)cc1"
Result: 26

----------
Let's look at some compounds and their measured TGI.
Test system: NCI-H460 lung
Assay: NCI tumour cell line growth inhibition, 48 h
Expressed in µM, but write only the number.

O=C1/C(=C/c2ccc(O)c(O)c2)COc2ccc(-c3ccccc3)cc21 :: 5.67
CCCCCc1cc2cc3c(c(O)c2c(=O)[nH]1)C1(CC3)C(O)=c2c(=O)c3c(=O)cc(OC)c(=O)c=3c(=O)c2=C1O (stereo not given) :: 3.35
CCCCCCCc1c(Cl)nc(Cl)nc1Cl :: 27.8
CC(C)=CCC/C(C)=C/CC/C(C)=C/CCN(C)CCO :: 14.5

Now look at this entry.
Ask: I'd like to know its TGI. The compound in question is "COc1ccc2nccc(NCCCN3CCN(CCCNc4ccnc5ccc(OC)cc45)CC3)c2c1"
Result: 1.77

----------
Test system: UO-31 renal
Test: NCI tumour cell line growth inhibition, 48 h
Let's look at some molecules and their measured TGI.

As a guide, the following entries are already answered.
N#Cc1c2nc3ccccc3nc2n2ccccc12 :: > 100 µM
S=c1[nH]n2c(Cc3ccccc3)nnc2s1 :: > 100 µM
CC(C)=CCC/C(C)=C\CC/C(C)=C/CO :: > 100 µM

Ask: Item "Cc1ccc(-c2cc3c(NC(=O)C4CC4)ncnc3o2)cc1" with UO-31 renal - TGI?
Result: > 25 µM

Ask: Item N#CC(/C(=N/N=C(N)N)C(=O)Nc1ccccc1[N+](=O)[O-])c1nc(-c2ccc([N+](=O)[O-])cc2)cs1 (stereo unspecified) with UO-31 renal - TGI?
Result: > 100 µM

Ask: Item CC1CN=C(N(C(=O)Nc2ccccc2)c2ccccc2)S1 (stereo unspecified) with UO-31 renal - TGI?
Result: > 100 µM

Ask: Item "NCCCCCCn1c2c(c3ccccc3c1=O)C(=O)c1ccccc1-2" with UO-31 renal - TGI?
Result: 1.85 µM

Ask: Item "OCC#Cc1ccccc1C#CCCCCCCC#Cc1ccccc1C#CCO" with UO-31 renal - TGI?
Result: > 53.1 µM

Ask: Item "COc1ccc(-c2nc3ccccc3c(=O)[nH]2)c(OC)c1" with UO-31 renal - TGI?
Result: > 100 µM

Ask: Item "COc1cc(-c2cc(/C=C/C(=O)c3ccc(N)cc3)[nH]n2)cc(OC)c1OC" with UO-31 renal - TGI?
Result: 2.86 µM

Ask: Item COc1ccc2c(c1)CN1C(=N2)CSC1c1c(Cl)cccc1[N+](=O)[O-] (stereo unspecified) with UO-31 renal - TGI?
Result: 65.1 µM

----------
Let's look at some molecules and their measured TGI.
System: NCI-H460 lung
Experiment: NCI tumour cell line growth inhibition, 48 h
Expressed in µM, but write only the number.

As a guide, the following entries are already answered.
O=c1c(O)c(-c2ccccc2)n(O)c2ccc(Cl)cc12 :: 69.2
CCOc1ccc2nc(S/C(=C/C=C(C#N)C#N)c3ccc(Cl)cc3)sc2c1 :: 25

Ask: I'd like to know its TGI. The molecule in question is O=CC1C(Cl)=Nc2nc3ccccc3n2C1c1ccc([N+](=O)[O-])cc1 (stereo not given)
Result: 94

----------
Tested on: HCC-2998 colon
Assay: NCI tumour cell line growth inhibition, 48 h
Let's look at some molecules and their measured TGI.

As a guide, the following entries are already answered.
N#Cc1c(-c2ccc(Cl)cc2)cc(-c2ccc(Nc3ccnc4cc(C(F)(F)F)ccc34)cc2)nc1N :: > 100 µM
Cc1ccc(-c2cc3c(NC(=O)C4CC4)ncnc3o2)cc1 :: > 25 µM

Ask: I'd like to know its TGI. The molecule in question is Cc1ccc(S(=O)(=O)NC2C(=O)c3ccccc3C(=O)C2n2ccnc2)cc1 (centres undefined)
Result: > 100 µM

Ask: I'd like to know its TGI. The molecule in question is "O=C(O[C@H]1CN[C@H](C#Cc2cc3ncnc(Nc4ccc5c(cnn5Cc5ccccc5)c4)c3s2)C1)N1CCOCC1"
Result: > 25 µM

Ask: I'd like to know its TGI. The molecule in question is N#CC(NCCc1ccccc1)c1ccccc1 (centres undefined)
Result: > 100 µM

Ask: I'd like to know its TGI. The molecule in question is "CCOC(=O)c1nc2cc(C(F)(F)F)ccc2nc1Nc1ccc(OC)c(OC)c1"
Result: > 100 µM

Ask: I'd like to know its TGI. The molecule in question is "Cc1coc2c1[C@@H](O)[C@@]1(C)[C@H](CCC[C@@H]1C)C2"
Result: > 100 µM

Ask: I'd like to know its TGI. The molecule in question is Cc1ccc(NC(=O)C(=O)C(C2C(C)CC(=O)C2CC(=O)O)[N+](=O)[O-])cc1 (centres undefined)
Result: > 100 µM

Ask: I'd like to know its TGI. The molecule in question is "Cc1ccc(Nc2nc(C)c(C(=O)CC(=O)C(=O)Nc3ccc(Cl)cc3)s2)cc1"
Result: > 100 µM

----------
Let's look at some molecules and their measured TGI.
Tested on: RPMI-8226 leukemia
Assay: NCI tumour cell line growth inhibition, 48 h

As a guide, the following entries are already answered.
CCOc1cc(C(c2c(O)c3ccccc3oc2=O)c2c(O)c3ccccc3oc2=O)ccc1OC :: 89.9 µM
COc1cc(C2c3cc4c(cc3CC3COC(=O)N32)OCO4)cc(OC)c1OC (stereo unspecified) :: > 100 µM
CCCCN(C(=O)c1ccccc1)C1CCC(=O)c2[nH]c3ccccc3c21 (stereo unspecified) :: 68.8 µM
Cc1cc(C)c(C#N)c(SCC(=O)c2sc3c(C#N)c(C)cc(C)[n+]3c2[O-])n1 :: > 100 µM
CCCCCCCc1c(Cl)nc(Cl)nc1Cl :: 8.85 µM

Ask: Item "Cc1ccc(S(=O)(=O)NC2=NCCN2C(=S)SN2CCn3c2nsc3=S)cc1" with RPMI-8226 leukemia - TGI?
Result: 73.2 µM

Ask: Item C=C(CN(C)C)C1(c2ccccc2)CC2(CCCC2)C(=O)O1 (stereo unspecified) with RPMI-8226 leukemia - TGI?
Result: > 100 µM

Ask: Item "C[N+](C)(C)CC(=O)N/N=C(/Cc1nc2ccc(Cl)cc2[nH]c1=O)C1=NS(=O)(=O)c2cc(S(N)(=O)=O)c(Cl)cc2N1" with RPMI-8226 leukemia - TGI?
Result: > 100 µM

Ask: Item CSCCC(NC(=O)CNC(=O)C(CC(=O)O)NC(=O)C(NC(=O)C(NC(=O)C(NC(=O)CNC(=O)C(CCC(N)=O)NC(=O)C(CCSC)NC(=O)C(CC(=O)O)NC(=O)C(C)NC(=O)C(C)NC(=O)C(NC(=O)C(CO)NC(=O)C(N)CC(C)C)C(C)O)C(C)C)C(C)C)C(C)O)C(=O)NC(C)C(=O)NC(CO)C(=O)NCC(=O)NC(CC(C)C)C(=O)NC(CC(=O)O)C(=O)NC(CCCCN)C(=O)NC(CC(=O)O)C(=O)NC(Cc1ccc(O)cc1)C(=O)NC(CC(C)C)C(=O)NC(CCCCN)C(=O)N1CCCC1C(=O)NC(CC(=O)O)C(=O)NC(CC(=O)O)C(=O)O (stereo unspecified) with RPMI-8226 leukemia - TGI?
Result: > 82.5 µM

Ask: Item "CN(CC(=O)O)S(=O)(=O)c1ccc(F)cc1" with RPMI-8226 leukemia - TGI?
Result: > 100 µM

Ask: Item "CC(C)OP(=O)(OC(C)C)C([CH2][Sn]([CH3])([CH3])[Cl])P(=O)(OC(C)C)OC(C)C" with RPMI-8226 leukemia - TGI?
Result: 35.1 µM

----------
Let's look at some molecules and their measured TGI.
Test system: T-47D breast
Assay: NCI tumour cell line growth inhibition, 48 h

As a guide, the following entries are already answered.
CC(C)=CCC/C(C)=C/CC/C(C)=C/CCN(C)CCO :: 7.4 µM
CC(C)=CCC/C(C)=C\CC/C(C)=C/CO :: > 100 µM
CN1C(=O)/C(=C/c2c(Cl)[nH]c3ccccc23)c2ccccc21 :: 71.2 µM
CNC(=S)N/N=C(\C)c1cc(OC)ccc1O :: > 100 µM
Clc1ccc(Nc2nn3c(CCCCCCCCc4nnc5sc(Nc6ccc(Cl)cc6)nn45)nnc3s2)cc1 :: > 100 µM

Ask: I'd like to know its TGI. The molecule in question is "Cc1ccc(C(N)=Nc2ccccc2)cc1"
Result: > 100 µM

Ask: I'd like to know its TGI. The molecule in question is "COc1ccc(-c2nc3ccccc3c(=O)[nH]2)c(OC)c1"
Result: > 100 µM

Ask: I'd like to know its TGI. The molecule in question is "CCCCCCCCCCCC(=O)c1c(O)cc(C)oc1=O"
Result: > 100 µM
